target: serum proteins; test: 90% serum, 30 kDa ultrafiltration, HPLC
Property label: Protein binding (%)

>>> data_value("GFCWYVCVYRNGGRVCYRRCN [SEQ ID NO: 30]")
99
>>> data_value("GFCWNVCVYRNGVRFCHRRCN [SEQ ID NO: 245]")
85
>>> data_value("GFCAHVCVKRNGARVCYRRCN [SEQ ID NO: 362]")
76
>>> data_value("GFCWYVCVYRNGVRVCHRRCN [SEQ ID NO: 46]")
88

All values here come from patent US20150031601A1.
